Target: PI3Kδ (Homo sapiens, UniProt O00329)
Construct: purchased Millipore 14-604
Sequence (O00329 whole entry): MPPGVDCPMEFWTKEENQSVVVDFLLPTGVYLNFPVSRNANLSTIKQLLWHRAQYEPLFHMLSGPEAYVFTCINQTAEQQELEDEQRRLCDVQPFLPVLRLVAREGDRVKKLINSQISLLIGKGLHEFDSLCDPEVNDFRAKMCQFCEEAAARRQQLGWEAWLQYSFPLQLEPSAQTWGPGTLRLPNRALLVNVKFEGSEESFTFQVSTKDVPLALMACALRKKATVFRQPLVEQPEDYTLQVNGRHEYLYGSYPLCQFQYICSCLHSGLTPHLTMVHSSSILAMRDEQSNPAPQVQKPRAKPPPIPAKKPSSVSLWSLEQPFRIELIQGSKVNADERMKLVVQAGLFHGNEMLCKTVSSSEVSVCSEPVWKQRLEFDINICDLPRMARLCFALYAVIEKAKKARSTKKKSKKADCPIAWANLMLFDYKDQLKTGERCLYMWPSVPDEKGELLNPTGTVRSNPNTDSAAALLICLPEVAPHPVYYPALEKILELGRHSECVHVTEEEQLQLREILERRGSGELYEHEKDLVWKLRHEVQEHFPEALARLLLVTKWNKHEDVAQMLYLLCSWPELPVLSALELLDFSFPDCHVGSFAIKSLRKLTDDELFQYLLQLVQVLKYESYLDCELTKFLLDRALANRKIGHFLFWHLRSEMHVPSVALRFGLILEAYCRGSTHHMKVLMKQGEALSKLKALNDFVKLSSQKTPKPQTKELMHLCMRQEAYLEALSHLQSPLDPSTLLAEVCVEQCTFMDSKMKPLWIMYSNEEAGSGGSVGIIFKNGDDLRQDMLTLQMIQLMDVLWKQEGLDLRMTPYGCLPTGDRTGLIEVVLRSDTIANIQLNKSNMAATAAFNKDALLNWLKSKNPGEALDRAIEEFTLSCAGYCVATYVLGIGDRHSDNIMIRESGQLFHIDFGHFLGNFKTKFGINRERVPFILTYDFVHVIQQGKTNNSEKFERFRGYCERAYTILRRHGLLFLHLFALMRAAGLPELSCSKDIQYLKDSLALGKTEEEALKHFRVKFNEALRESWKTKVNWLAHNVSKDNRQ
Sequence (P27986 whole entry partner): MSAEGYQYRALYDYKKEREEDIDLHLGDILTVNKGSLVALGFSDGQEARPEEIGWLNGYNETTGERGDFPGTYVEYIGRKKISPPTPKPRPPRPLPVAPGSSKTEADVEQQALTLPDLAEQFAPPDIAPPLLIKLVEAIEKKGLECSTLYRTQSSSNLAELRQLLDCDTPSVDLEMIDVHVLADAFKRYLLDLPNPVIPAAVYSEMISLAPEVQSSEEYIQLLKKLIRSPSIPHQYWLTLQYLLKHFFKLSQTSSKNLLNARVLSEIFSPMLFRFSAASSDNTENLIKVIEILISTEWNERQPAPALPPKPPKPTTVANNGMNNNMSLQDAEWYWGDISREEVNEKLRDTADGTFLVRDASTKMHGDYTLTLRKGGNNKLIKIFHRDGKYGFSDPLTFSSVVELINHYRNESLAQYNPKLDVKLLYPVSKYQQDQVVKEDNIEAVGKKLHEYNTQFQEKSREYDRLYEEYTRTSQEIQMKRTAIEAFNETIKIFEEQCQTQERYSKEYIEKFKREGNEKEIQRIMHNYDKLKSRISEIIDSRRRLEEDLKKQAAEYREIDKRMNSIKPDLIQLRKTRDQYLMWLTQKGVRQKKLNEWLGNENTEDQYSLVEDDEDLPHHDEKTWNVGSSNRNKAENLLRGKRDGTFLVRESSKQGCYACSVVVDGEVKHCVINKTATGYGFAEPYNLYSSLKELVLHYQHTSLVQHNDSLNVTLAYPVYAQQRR
Test: Inhibitory activity to PI3K δ, PI 3-Kinase (human) HTRF Assay kit
Format: biochemical
Settings: 0.4 μM (Table 8); read-out: Inhibition rate % to PI3K delta
Class 1: inhibition at 0.4 µM at least 30%. Class -1: inhibition at 0.4 µM below 30%.

Solved entries (count: 3):
| compound | class name |
| --- | --- |
| CC(C)Oc1nc(Nc2ccc3nccc(-c4ccc5c(c4)OCO5)c3c2)nc2[nH]cnc12 | -1 |
| CC(C)Oc1nc(Nc2ccc3nccc(-c4ccccc4)c3c2)nc2[nH]cnc12 | 1 |
| CC(C)Oc1nc(Nc2ccc3nccc(-c4cccc(F)c4)c3c2)nc2[nH]cnc12 | -1 |

Please tell me: is the compound COC[C@H]1OC(=O)c2coc3c2[C@@]1(C)C1=C(C3=O)[C@@H]2CCC(=O)[C@@]2(C)C[C@H]1OC(C)=O [Wortmannin, reference compound] at or over 30% in terms of inhibition at 0.4 µM? 1

Another compound to check: "Oc1nc(Nc2ccc3nccc(-c4ccccc4)c3c2)nc2[nH]cnc12" -1

Another compound to check: c1cc(C2CC2)c2cc(Nc3nc(NC4CC4)c4nc[nH]c4n3)ccc2n1 [MED1007-115, dihydrate di-methanesulfonate] 1
